Molecular target: T1, human GIP receptor (human) (UniProt P48546)
T1 sequence (looked up): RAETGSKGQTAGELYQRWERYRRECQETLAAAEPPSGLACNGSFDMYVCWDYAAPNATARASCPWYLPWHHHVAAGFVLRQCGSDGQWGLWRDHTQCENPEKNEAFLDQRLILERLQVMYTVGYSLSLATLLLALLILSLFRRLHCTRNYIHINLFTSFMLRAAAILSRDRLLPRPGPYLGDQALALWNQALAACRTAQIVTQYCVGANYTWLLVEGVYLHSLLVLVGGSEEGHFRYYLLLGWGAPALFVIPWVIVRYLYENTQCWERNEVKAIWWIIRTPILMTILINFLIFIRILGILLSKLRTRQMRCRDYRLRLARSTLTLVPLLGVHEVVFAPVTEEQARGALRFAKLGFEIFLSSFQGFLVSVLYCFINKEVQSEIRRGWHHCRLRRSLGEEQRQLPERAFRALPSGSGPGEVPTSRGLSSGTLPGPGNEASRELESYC
Experiment: cell-based or functional assay
Attribute: cAMP Rel EC50 (1% HSA)
Numbers only; they are read as nM.

Illustrative cases are given below, each with its answer.
Binder	cAMP Rel EC50 (1% HSA), nM
YXQGTXTSDXXIXLDXKAQXQFIEXLQEGGPSSGEPPPEGTGE (synthetic construct; SITE 2: note = 2-Aminoisobutyric Acid; SITE 6: note = alpha-methyl-2-fluoro-L-phenylalanine; SITE 10: note = 3-(4-Pyridyl)-L-alanine; SITE 11: note = alpha-methyl-L-serine; SITE 13: note = alpha-methyl-leucine; SITE 16: note = L-ornithine; SITE 17: note = Lysine is chemically mo) [Example 529]	1.39
YXQGTFTSDXSQXLDXKAQXAFIEXLIAXGPSSGEPPPSGSEE (non-natural residues (Aib, 4Pal, Orn, Me4Pal, αMeY); lipidated K; amide; synthetic construct; SITE 2: note = 2-Aminoisobutyric Acid; SITE 10: note = 3-(4-Pyridyl)-L-alanine; SITE 13: note = alpha-methyl-leucine; SITE 16: note = L-ornithine; SITE 17: note = Lysine is chemically modified through conjugation of the epsilon-amino group of the Lysine side chain with (gamma-Gl)) [Example 1094]	5.86
YXQGTFTSDXSXXLDXKAQXAFIEXLLEGGPSSGAPPPSGSEE (non-natural residues; lysine acylated with C18 diacid; C-terminal amide; synthetic construct; SITE 2: note = 2-Aminoisobutyric Acid; SITE 10: note = 3-(4-Pyridyl)-L-alanine; SITE 12: note = L-ornithine; SITE 13: note = alpha-methyl-leucine; SITE 16: note = L-ornithine; SITE 17: note = Lysine is chemically modified through conjugation of the epsilon-amino group of the Lys) [Example 1067]	86.4

I am curious: what cAMP Rel EC50 (1% HSA) value has been reported for YXQGTFTSDXSXXLDXKAQXAFIEYLLAGGPSSGAPPPSGSEE (non-natural residues; acylated Lys; C-terminal amide; synthetic construct; SITE 2: note = 2-Aminoisobutyric Acid; SITE 10: note = 3-(4-Pyridyl)-L-alanine; SITE 12: note = L-ornithine; SITE 13: note = alpha-methyl-leucine; SITE 16: note = L-ornithine; SITE 17: note = Lysine is chemically modified through conjugation of the epsilon-amino group of the Lys) [Example 1069] ?
39.5

# repeat for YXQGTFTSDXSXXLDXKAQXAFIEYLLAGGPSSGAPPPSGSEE (C-terminal amide; lysine acylated with (γ-Glu)2-C18 diacid; synthetic construct; SITE 2: note = 2-Aminoisobutyric Acid; SITE 10: note = 3-(4-Pyridyl)-L-alanine; SITE 12: note = L-ornithine; SITE 13: note = alpha-methyl-leucine; SITE 16: note = L-ornithine; SITE 17: note = Lysine is chemically modified through conjugation of the epsilon-amino group of the Lys) [Example 1068]
20.2

# repeat for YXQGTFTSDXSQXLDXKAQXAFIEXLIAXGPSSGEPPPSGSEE (Non-natural residues; K acylated AEEA-γGlu-C18 diacid; C-terminal amide; synthetic construct; SITE 2: note = 2-Aminoisobutyric Acid; SITE 10: note = 3-(4-Pyridyl)-L-alanine; SITE 13: note = alpha-methyl-leucine; SITE 16: note = L-ornithine; SITE 17: note = Lysine is chemically modified through conjugation of the epsilon-amino group of the Lysine side chain with (2-[2-(2-) [Example 1099]
8.64
